Tested on: α-glucosidase
Assay: α-glucosidase inhibition assay (PNPG substrate, OD 405 nm)
Format: biochemical, Saccharomyces cerevisiae
Settings: compound at 250 μM; 0.07 U/ml enzyme, 0.5 mM PNPG, pH 6.8, 37 °C
Procedure: The α-glucosidase inhibitory activity was determined on a Thermo Scientific Multiskan GO Microplate Reader. […] Then the 96-well plate was quickly transferred into the microplate reader, incubated at 37 °C for 30 min (1 min shake + 9 min incubation, repeated 3 times). […] The 96-well plate was quickly transferred into the microplate reader and shaken for 30 s. […] The OD value was measured at 405 nm. The inhibition rate was calculated by Equation (1). […]
Use 1.0 when the recorded Inhibition rate is no lower than 60%; use 0.0 when it is lower.

Decide: Inhibition rate of O=C1C=C(O)C(=O)C(Cc2ccc(-c3ccccc3)cc2)=C1O [Compound 17d] >= 60%?
1.0

Decide: Inhibition rate of CCCCCCCCCC1=C(OC)C(OC)=CC(=O)C1=O >= 60%?
0.0

Decide: Inhibition rate of COCCCC1=C(O)C(=O)C=C(O)C1=O [Compound 13d] >= 60%?
0.0

From here, focus on the item given below.
Decide: Inhibition rate of CCCCCC1=C(OC)C(=O)C=C(OC)C1=O >= 60%?
0.0
